# Tested on: Fusarium culmorum
# Assay Details: microbe, parasite or virus in culture
# Assay type: cell-based
# Cond: read-out: control of Fusarium culmorum
Measure: inhibition of growth at 20 ppm

[[record]]
molecule = "CC1(C)CC(Cc2ccsc2)N=C(c2cnc3c(F)c(F)ccc3c2)[S+]1[O-] (centres unmarked)"
observed_value = "≥ 80%"

[[record]]
molecule = "CC1(C)CC(Cc2cccc(F)n2)N=C(c2cnc3c(F)c(F)ccc3c2)O1 (centres unmarked)"
observed_value = "≥ 80%"

[[record]]
molecule = "CC1(C)CC(Cc2ccsc2)N=C(c2cnc3c(F)cccc3c2)S1 (centres unmarked)"
observed_value = "≥ 80%"

[[record]]
molecule = "CC1(C)CC(Cc2ccc(F)nc2)N=C(c2cnc3c(F)c(F)ccc3c2)S1 (centres unmarked)"
observed_value = "≥ 80%"

[[record]]
molecule = "CC1(C)CC(Cc2cccc(F)n2)N=C(c2cnc3c(F)c(F)ccc3c2)S1 (centres unmarked)"
observed_value = "≥ 80%"

[[record]]
molecule = "CC1(C)CC(Cc2ccccn2)N=C(c2cnc3c(F)c(F)ccc3c2)S1 (centres unmarked)"
observed_value = "≥ 80%"

[[record]]
molecule = "CC1(C)CC(Cc2ccsc2)N=C(c2cnc3c(F)c(F)ccc3c2)S1 (centres unmarked)"
observed_value = "≥ 80%"

[[record]]
molecule = "CC1(C)CC(Cc2cccnc2)N=C(c2cnc3c(F)c(F)ccc3c2)S1 (centres unmarked)"
observed_value = "≥ 80%"

